All values here come from PubChem BioAssay (NCI).

# GI50 per entry
# System: T-47D breast
# EXPERIMENT SUMMARY: NCI tumour cell line growth inhibition, 48 h

SMILES TEXT	GI50
C/C(=C(/c1ccc(O)cc1)c1ccc(Cl)cc1)c1ccccc1	762 nM
CC[C@@]12C=CCN3CC[C@]4(c5cc(NC(=O)COc6cc(OCC(=O)Nc7cc8c(cc7OC)N(C)[C@H]7[C@@](O)(C(=O)OC)[C@H](OC(C)=O)[C@]9(CC)C=CCN%10CC[C@]87[C@@H]%109)cc7oc(-c8ccccc8)cc(=O)c67)c(OC)cc5N(C)[C@@H]4[C@](O)(C(=O)OC)[C@H]1OC(C)=O)[C@H]32	57500 nM
CSc1nsc(S/C=C\C(=O)c2ccc(C)cc2)n1	23000 nM
CCN(CC)CCOc1c(OC)c(Br)cc2c(C)c(C(=O)OC)oc12	188 nM
COc1ccc([C@@H](O)c2cc(-c3ncnc4cc(N5CCOCC5)ccc34)c(F)cc2Cl)nn1	228 nM
O=C(Nc1ccc(Br)cc1)Nc1nn(C(=O)Nc2ccc(Br)cc2)c2ccccc12	28100 nM
C/C(=N\NC(=S)N1CCN(c2ccccn2)CC1)c1nccs1	855 nM
N=c1ccc2nc3c(cc(N)c4ccccc43)oc-2c1	1090 nM

---

# System: U251 CNS
# EXPERIMENT SUMMARY: NCI tumour cell line growth inhibition, 48 h; in the data active means GI50 below about 0.43 µM; inactive means the rest
Outcome codes: yes for active, no for inactive

> print(dat)
                                    compound  label.class
 1               CCCCN(CC)c1ncnc2ccc(Br)cc12           no
 2  CC(=O)c1cc(-c2ccccc2N)n(-c2ccc3c(c2)OCO3)c1C          yes
 3  O=C(N/N=C/c1ccc(Cl)cc1)c1[nH]c2ccc(Cl)cc2c1-c1ccccc1          yes
 4  CCCCNC(=O)Oc1ccc(/C(=C(/CC)Cc2ccccc2)c2ccc(OCCN3CCCCCC3)cc2)cc1           no
 5      Clc1ccc2c(c1)C(N1CCNCC1)=Nc1ccccc1O2           no
 6  CCCCN(CCCC)CCc1c(C)cc(C)c(CCN(CCCC)CCCC)c1O           no
 7  CS(=O)(=O)[O-].CS(=O)(=O)[O-].NC1CCCCC1N.[Pt+4] (stereo unspecified)           no
 8  COc1ccc(/C=C\c2cc(OC)c(OC)c(OC)c2)c(NS(=O)(=O)c2ccc(Cl)cc2)c1O          yes
 9  C/C(=C(/c1ccc(O)cc1)c1ccc(Cl)cc1)c1ccccc1           no
10  CCOC(=O)c1c2c(n(Cc3ccccc3)c1C)-c1nc(Cc3ccccc3)[nH]c1C(=O)C2=O           no
11  CC(=O)c1cccc(-c2cccc(-c3ccn(CCN4CCOCC4)n3)c2)c1           no

---

# Tested on: NCI-H226 lung
# EXPERIMENT SUMMARY: NCI tumour cell line growth inhibition, 48 h; in the data active = GI50 below about 0.43 µM; inactive = the rest
Outcome codes: active, inactive

> print(dat)
                                   molecule  experimental.target  label.class
1  O=C(Nc1ccc(Br)cc1)Nc1nn(C(=O)Nc2ccc(Br)cc2)c2ccccc12        NCI-H226 lung     inactive
2  C[C@]12CC[C@@H](OC(=O)N(CCCl)N=O)C[C@@H]1CC[C@@H]1[C@@H]2CC[C@]2(C)C(=O)CC[C@@H]12        NCI-H226 lung     inactive
3  COc1ccc(NC(=O)n2nc(/C=C\c3ccc(O)c(OC)c3)cc2/C=C\c2ccc(O)c(OC)c2)cc1        NCI-H226 lung     inactive
4  CCN(CC)CCOc1c(OC)c(Br)cc2c(C)c(C(=O)OC)oc12        NCI-H226 lung     inactive
5  Cn1cc(C2=C(c3cn(C)c4cc(N)ccc34)C(=O)NC2=O)c2ccccc21        NCI-H226 lung     inactive
6  CS(=O)(=O)[O-].CS(=O)(=O)[O-].NC1CCCCC1N.[Pt+4] (centres undefined)        NCI-H226 lung     inactive
7  COC(=O)[C@H]1[C@H]2C[C@@H]3c4[nH]c5cc(OC)ccc5c4CCN3C[C@H]2C[C@@H](OC(=O)/C=C/c2cc(OC)c(OC)c(OC)c2)[C@@H]1OC        NCI-H226 lung     inactive
8  COC(=O)c1ccc2c(c1)C(=O)c1c-2n(CCCN)c(=O)c2cc(OC)c(OC)cc12        NCI-H226 lung     inactive
9  CC(=O)c1cc(-c2ccccc2N)n(-c2ccc3c(c2)OCO3)c1C        NCI-H226 lung       active

---

# Test system: SK-MEL-2 melanoma
# EXPERIMENT SUMMARY: NCI tumour cell line growth inhibition, 48 h; in the data active = GI50 below about 0.43 µM; inactive = the rest
Outcome codes: label 1 (active), label 0 (inactive)

COMPOUND	EXPERIMENTAL TARGET	LABEL CLASS
Clc1ccc2c(c1)C(N1CCNCC1)=Nc1ccccc1O2	SK-MEL-2 melanoma	label 0
CC1(C)[C@@H](OC(N)=O)C=C[C@]2(CO)[C@H]3CC[C@]4(C)[C@@H](c5ccc(=O)oc5)[C@@H](Cl)C[C@]4(O)C3=CC[C@@H]12	SK-MEL-2 melanoma	label 1
COc1nc(C)cc2c(=O)n(-c3ccccc3)n(CC(O)CN3CCN(c4ccc(Cl)cc4)CC3)c(=O)c12 (stereo not given)	SK-MEL-2 melanoma	label 0
CC(=O)c1cc(-c2ccccc2N)n(-c2ccc3c(c2)OCO3)c1C	SK-MEL-2 melanoma	label 1
Oc1c(CN2CCCC2)cc(CSCc2ccccc2)c2cccnc12	SK-MEL-2 melanoma	label 0
CCC[CH2][Sn]1([CH2]CCC)[O]C(=O)c2ccc(N)cc2[O]1	SK-MEL-2 melanoma	label 1
C[PH+](c1nc2ccccc2nc1[PH+](C)C(C)(C)C)C(C)(C)C.C[PH+](c1nc2ccccc2nc1[PH+](C)C(C)(C)C)C(C)(C)C.[Au+].[Cl-] (stereo not given)	SK-MEL-2 melanoma	label 1
CCN(CC)CCOc1c(OC)c(Br)cc2c(C)c(C(=O)OC)oc12	SK-MEL-2 melanoma	label 0
CS(=O)(=O)[O-].CS(=O)(=O)[O-].NC1CCCCC1N.[Pt+4] (stereo not given)	SK-MEL-2 melanoma	label 0
C/C(=C(/c1ccc(O)cc1)c1ccc(Cl)cc1)c1ccccc1	SK-MEL-2 melanoma	label 0

---

# System: CAKI-1 renal
# EXPERIMENT SUMMARY: NCI tumour cell line growth inhibition, 48 h
*1 amine or outer side, *2 acyl side, *3 side chain or, on linkers, in order; H or OH if unused. Where a SMILES comes first, the peptide text is derived from it. Bridges are numbered along the chain shown (N, C = ends). [ ]: non-standard residue; d: D form. ξ: configuration not given here. X35 = CC[C@H](C)[C@@H](N[*:1])[C@@H](O)CC(=O)O[C@H](C(=O)[C@H](C)C(=O)[*:2])C(C)C; NMeY = CN[C@@H](Cc1ccc(O)cc1)C(=O)O; dNMeL = CN[C@H](CC(C)C)C(=O)O; ξΔPro = O=C(O)C1C=CCN1
Y means recorded TGI is 50 µM or above; N means it is below 50 µM.

COMPOUND	EXPERIMENTAL TARGET	LABEL CLASS
CCCCCCNC(=O)Oc1ccc(/C(=C(/C)Cc2ccc(OC)cc2)c2ccc(OCCN(C)C)cc2)cc1	CAKI-1 renal	N
COc1ccc(/C=C\c2cc(OC)c(OC)c(OC)c2)c(NS(=O)(=O)c2ccc(Cl)cc2)c1O	CAKI-1 renal	N
CCOC(=O)c1c(-c2ccccc2)c(C(OC(c2ccccc2)c2c(-c3ccccc3)c(C(=O)OCC)n3ccccc23)c2ccccc2)c2ccccn12 (stereo unspecified)	CAKI-1 renal	Y
Cc1ccc(NC2=N/C(=C/c3ccco3)C(Cl)=N2)cc1	CAKI-1 renal	Y
NNC(=O)Cn1ccnn1	CAKI-1 renal	Y
CS(=O)(=O)NNS(=O)(=O)c1ccc(Cl)cc1	CAKI-1 renal	Y
COC(=O)c1ccc(C(=O)OC)c2nc3cc(C)ccc3nc12	CAKI-1 renal	Y
Nn1c(Sc2nc3ccccc3c(=O)n2N)nc2ccccc2c1=O	CAKI-1 renal	N
COc1nc(C)cc2c(=O)n(-c3ccccc3)n(CC(O)CN3CCN(c4ccc(Cl)cc4)CC3)c(=O)c12 (stereo unspecified)	CAKI-1 renal	Y
COC1(OC)C=CC(=O)C=C1	CAKI-1 renal	N
CC[C@H](C)[C@H]1NC(=O)[C@@H](NC(=O)[C@@H](CC(C)C)N(C)C(=O)C2C=CCN2)[C@@H](C)OC(=O)[C@H](Cc2ccc(OC)cc2)N(C)C(=O)[C@@H]2CCCN2C(=O)[C@H](CC(C)C)NC(=O)[C@@H](C)C(=O)[C@H](C(C)C)OC(=O)C[C@@H]1O (stereo partly specified) (H-[ξΔPro][dNMeL]T[X35]LP[NMeY](Me); ester 3-C)	CAKI-1 renal	N
O=[N+]([O-])c1ccc2c(c1)n1c(N3CCCC3)[n+]3ccccc3c1c1c3cccc[n+]3c(N3CCCC3)n21	CAKI-1 renal	Y
C/C(=N\NC(=S)N1CCN(c2ccccn2)CC1)c1nccs1	CAKI-1 renal	N
CCOC(=O)C1=C(Nc2ccc(Cl)c(Cl)c2)OC/C1=N\NC(=O)Cc1ccccc1	CAKI-1 renal	Y
Cc1c(C(=O)CC(=O)C(=O)Nc2cc(Cl)ccc2Cl)[n+](=O)c2ccccc2n1[O-]	CAKI-1 renal	Y
Cc1nc2c(n1-c1ccccc1)C(=O)c1ccccc1C2=O	CAKI-1 renal	Y
C[C@]12CC[C@H]3[C@@H](CCC4=C(Br)C(=O)C=C[C@@]43O)[C@@H]1CCC2=O	CAKI-1 renal	Y
CC(C)(Cc1ccccc1)N1C(=O)N1C(C)(C)Cc1ccccc1	CAKI-1 renal	Y
Nc1cc2[nH]cnc2c(=O)[nH]1	CAKI-1 renal	Y
COC(=O)/C=c1/c2ccccc2n2c1c1ccccc1[n+]2C	CAKI-1 renal	Y
COC(=O)[C@H]1N[C@@H](C(=O)OC)C23CCC[C@H]2CC[C@]1(C(OC)OC)C3	CAKI-1 renal	Y
COC(=O)c1ccc(CN2C(=O)C(Cl)=C(Nc3ccc(OC)c(Cl)c3)C2=O)cc1	CAKI-1 renal	Y
O=C(O)Cc1ccccc1CCc1ccccc1Cl	CAKI-1 renal	Y
CCCCCCNC(=O)n1cc(F)c(=O)[nH]c1=O	CAKI-1 renal	N
Clc1ccc2c(c1)C(N1CCNCC1)=Nc1ccccc1O2	CAKI-1 renal	N
CC(=O)c1cc(-c2ccccc2N)n(-c2ccc3c(c2)OCO3)c1C	CAKI-1 renal	Y
CC1=NN2C(=N)/C(=C/c3ccccc3)C(=O)N=C2S1	CAKI-1 renal	Y
Clc1nc2c(C#Cc3ccccc3)ncnc2n1C1CCCCO1 (stereo unspecified)	CAKI-1 renal	N
